Kindly supply the reported polymerase ribozyme fitness (log ratio) values for the records listed here.
B1: TPR 5TU (parent)
chain: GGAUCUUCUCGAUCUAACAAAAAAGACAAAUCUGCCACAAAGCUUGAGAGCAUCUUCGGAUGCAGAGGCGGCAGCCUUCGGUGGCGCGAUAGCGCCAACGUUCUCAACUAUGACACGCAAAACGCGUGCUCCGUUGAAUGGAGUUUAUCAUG

- Variants of: B1
- protocol_details: polymerase ribozyme fitness, log enrichment relative to wild type (log ratio); higher = more active; in vitro selection for triplet polymerase activity
This sample holds only a part of the variants without activity.
Answers are plain numbers.

Would you please look over these solved cases?
A19C A20C U148A	-3.05
C96G U148A	-3.53
A3U A39G A52G U144C	-3.97

List polymerase ribozyme fitness (log ratio) for every entry below, keeping the order given.
1. A22U A26U
2. U77A G92U C99G
3. U101G G133U

OUT:
[-2.88, -4.06, -2.8]

List polymerase ribozyme fitness (log ratio) for every entry below, keeping the order given.
1. G58C G83A C93U
2. C35U U56A G143C
3. G94C A137C C149U
4. A21G C36U C57A
5. A16G A40C A119C U127C
6. G11A C96U
7. A41U C85G G126A
8. C63G U90G G94A

OUT:
-2.03
-2.48
-3.76
-0.735
-3.55
-1.9
-2.76
-3.97

Reference source for all entries: the RNAGym collection of RNA variant scans (doi:10.1073/pnas.2313332121)
